- Experimental context: in diglyme, 318.15 K
Property name: solubility (mole fraction)

- Compound: "COC(=O)Nc1nc2ccc(S(=O)c3ccccc3)cc2[nH]1 (stereo unspecified)"
  Reported measurement: 0.000454

====

- Experimental context: in DMAc, 293.15 K

- Molecule: "COC(=O)Nc1nc2ccc(S(=O)c3ccccc3)cc2[nH]1 (stereo unspecified)"
  solubility (mole fraction): 0.00659

====

- Experimental context: in methanol, 293.15 K
Property name: solubility (mole fraction)

- Compound: "COC(=O)Nc1nc2ccc(S(=O)c3ccccc3)cc2[nH]1 (stereo unspecified)"
  Reported measurement: 0.000148
